- assay.protocol: Hygroscopicity measurements (DVS sorption/desorption profiles)
- Type: physicochemical
- experimental.conditions: Target % P/P0 60.0; 25° C.
- Description: The sorption/desorption profiles of the forms of the present invention were tested at 25° C. under 0-90% relative humidity. The forms of the present invention were classified according to the following criteria: Deliquescent: Sufficient water is absorbed to form a liquid. […] Hygroscopic: Increase in mass is less than 15% and equal to or greater than 2%. Slightly hygroscopic: Increase in mass is less than 2% and equal to or greater than 0.2%. Non-hygroscopic: Increase in mass is less than 0.2%.
readout.type: Change in Mass (%) - ref, Sorption

Cc1nc(-c2ccc(OCC(C)C)c(C#N)c2)sc1C(=O)O [Form V] = 0.31
Cc1nc(-c2ccc(OCC(C)C)c(C#N)c2)sc1C(=O)O [Form G of U.S. Pat. No. 6,225,474, reference compound] = 1.915

(A) Cc1nc(-c2ccc(OCC(C)C)c(C#N)c2)sc1C(=O)O [Form IX]
(B) Cc1nc(-c2ccc(OCC(C)C)c(C#N)c2)sc1C(=O)O [Form XI]
In: Which value of Change in Mass (%) - ref, Sorption is smaller, the one for A or the one for B ? Record your answer as the label of the chosen record.
Out: A

----------
- assay.protocol: Aqueous solubility measurements
- Assay type: physicochemical
- experimental.conditions: media SGF; 24 hours at 25° C.
readout.type: Visual solubility

Cc1nc(-c2ccc(OCC(C)C)c(C#N)c2)sc1C(=O)O [Form V] = few particles
Cc1nc(-c2ccc(OCC(C)C)c(C#N)c2)sc1C(=O)O [Form XI] = few particles
Cc1nc(-c2ccc(OCC(C)C)c(C#N)c2)sc1C(=O)O [Form G of U.S. Pat. No. 6,225,474, reference compound] = few particles

----------
- assay.protocol: Hygroscopicity measurements (DVS sorption/desorption profiles)
- Type: physicochemical
- experimental.conditions: Target % P/P0 50.0; 25° C.
readout.type: Change in Mass (%) - ref, Sorption

Cc1nc(-c2ccc(OCC(C)C)c(C#N)c2)sc1C(=O)O [Form G of U.S. Pat. No. 6,225,474, reference compound] = 1.750
Cc1nc(-c2ccc(OCC(C)C)c(C#N)c2)sc1C(=O)O [Form XI] = 1.559

(1) Cc1nc(-c2ccc(OCC(C)C)c(C#N)c2)sc1C(=O)O [Form IX]
(2) Cc1nc(-c2ccc(OCC(C)C)c(C#N)c2)sc1C(=O)O [Form V]
In: Smaller Change in Mass (%) - ref, Sorption value? Options are 1 and 2 Write down the label of the entry you select.
Out: 2

----------
- assay.protocol: Hygroscopicity measurements (DVS sorption/desorption profiles)
- Type: physicochemical
- experimental.conditions: Target % P/P0 0.0; 25° C.
readout.type: Change in Mass (%) - ref, Sorption

Some compounds with known Change in Mass (%) - ref, Sorption results, for comparison:
Cc1nc(-c2ccc(OCC(C)C)c(C#N)c2)sc1C(=O)O [Form G of U.S. Pat. No. 6,225,474, reference compound] = 0.000
Cc1nc(-c2ccc(OCC(C)C)c(C#N)c2)sc1C(=O)O [Form IX] = 0.000

(1) Cc1nc(-c2ccc(OCC(C)C)c(C#N)c2)sc1C(=O)O [Form V]
(2) Cc1nc(-c2ccc(OCC(C)C)c(C#N)c2)sc1C(=O)O [Form XI]
In: Consider entries 1 and 2 . Which has the numerically lower Change in Mass (%) - ref, Sorption? Reply with the label of the item you choose.
Out: 1
(1: 0.00%, 2: 0.001%)
